src = paper PMC11062922

- Tested on: SIK3
- Parameters: species or system human, MV4-11 + K-562 + COLO205 + SK-N-BE2 + OVCAR-8
- cond: read-out: apparent Kd; compound concentrations:100 nM and 1000 nM (sheet 'Samples'); n = 1
Would you kindly list potency estimated from few doses for each of these compounds?
Answers are plain numbers, in nM.

# compound, measurement_kind, result
data = [
    ("CCN(CC)CCOc1ccc(Nc2ncc3cc(-c4c(Cl)cccc4Cl)c(=O)n(C)c3n2)cc1", "potency estimated from few doses", 201),
    ("Fc1ccc(-c2nc[nH]c2-c2ccncc2)cc1", "potency estimated from few doses", 1440),
    ("CNS(=O)(=O)c1ccc(N(C)C)c(Nc2ncnc3cc(OC)c(OC)cc23)c1", "potency estimated from few doses", 1350),
]

Q. I am curious: what potency estimated from few doses value has been reported for CN(C)CCOc1ccc(-c2cc(-c3c[nH]nc3-c3ccccn3)ccn2)cc1 [GW835314X] ?
A. 1800
